Tested on: 616215-338-R-J1-PDC complex spheroid viability
Test: Anticancer human tumor 616215-338-R-J1-PDC patient-derived colon adenocarcinoma cell line growth inhibition [POLQ]
Details: curve of first compound; second compound 0.316 µM
pIC50: −log10 of the molar value.
Assay readout: pIC50

Could you report pIC50 for every entry in the following list?
1. O=C(Nc1ccc(O)c(NS(=O)(=O)c2ccc(F)cc2)c1)c1ccc(-c2ccccc2)cc1 + Cc1cccc(N(C)C(=O)C2C(O)CCN2c2nc(C)cc(C(F)(F)F)c2C#N)c1
2. CCc1c2c(nc3ccc(O)cc13)-c1cc3c(c(=O)n1C2)COC(=O)[C@]3(O)CC + Nc1ccc(C#CCN(C(=O)Cc2ncc(C(F)(F)F)cc2C(F)(F)F)c2ccc(F)cc2)nn1
3. CC[C@@]1(O)C(=O)OCc2c1cc1n(c2=O)Cc2cc3c(CN(C)C)c(O)ccc3nc2-1 + Nc1ccc(C#CCN(C(=O)Cc2ncc(C(F)(F)F)cc2C(F)(F)F)c2ccc(F)cc2)nn1
4. COc1ccc([C@@H](O)c2cc(-c3ncnc4cc(N5CCOCC5)ccc34)c(F)cc2Cl)nn1 + Nc1ccc(C#CCN(C(=O)Cc2ncc(C(F)(F)F)cc2C(F)(F)F)c2ccc(F)cc2)nn1
5. O=C(Nc1ccc(O)c(NS(=O)(=O)c2ccc(F)cc2)c1)c1ccc(-c2ccccc2)cc1 + Nc1ccc(C#CCN(C(=O)Cc2ncc(C(F)(F)F)cc2C(F)(F)F)c2ccc(F)cc2)nn1
6. CCc1cc2c(N3CCc4c(cc(Cn5ccnc5)cc4-c4cn(C)nc4C(F)(F)F)C3=O)ccnc2c(OC)n1 + COC1C(OC(N)=O)C(O)C(Oc2ccc3c(O)c(NC(=O)c4ccc(O)c(CC=C(C)C)c4)c(=O)oc3c2C)OC1(C)C

1. < 5.00
2. 7.74
3. 7.18
4. < 5.00
5. < 5.00
6. < 5.00

Could you report pIC50 for every entry in the following list?
1. O=C(c1cc(Cc2n[nH]c(=O)c3ccccc23)ccc1F)N1CCN(C(=O)C2CC2)CC1 + COC1C(OC(N)=O)C(O)C(Oc2ccc3c(O)c(NC(=O)c4ccc(O)c(CC=C(C)C)c4)c(=O)oc3c2C)OC1(C)C
2. C#Cc1c(F)ccc2cc(O)cc(-c3ncc4c(N5CC6CCC(C5)N6)nc(OCC56CCCN5CC(F)C6)nc4c3F)c12 (stereo not drawn) + Nc1ccc(C#CCN(C(=O)Cc2ncc(C(F)(F)F)cc2C(F)(F)F)c2ccc(F)cc2)nn1

["< 5.00", 5.46]

====

System: 616215-338-R-J1-PDC complex spheroid viability
Experiment: Anticancer human tumor 616215-338-R-J1-PDC cell line growth inhibition [POLQ];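 also: spheroids exposed to compounds for one week before readout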;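 as to viability, T/C: percent viability relative to DMSO vehicle wells taken as 100%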
Conditions: second compound 3.16 µM; first compound 0.1 µM; stronger effect = lower value
Assay readout: viability, T/C (%)
One number for each entry, in %.

Compound	Unit abbrev	viability, T/C
CCCS(=O)(=O)Nc1ccc(F)c(C(=O)c2c[nH]c3ncc(-c4ccc(Cl)cc4)cc23)c1F + COC1C(OC(N)=O)C(O)C(Oc2ccc3c(O)c(NC(=O)c4ccc(O)c(CC=C(C)C)c4)c(=O)oc3c2C)OC1(C)C	%	99.7
CCCS(=O)(=O)Nc1ccc(F)c(C(=O)c2c[nH]c3ncc(-c4ccc(Cl)cc4)cc23)c1F + Nc1ccc(C#CCN(C(=O)Cc2ncc(C(F)(F)F)cc2C(F)(F)F)c2ccc(F)cc2)nn1	%	103

Next, consider the following compound.
Please state recorded viability, T/C (tested on 616215-338-R-J1-PDC complex spheroid viability) of CCc1cc2c(N3CCc4c(cc(Cn5ccnc5)cc4-c4cn(C)nc4C(F)(F)F)C3=O)cc(C)nc2c(OC)n1 + COC1C(OC(N)=O)C(O)C(Oc2ccc3c(O)c(NC(=O)c4ccc(O)c(CC=C(C)C)c4)c(=O)oc3c2C)OC1(C)C
110
